What TGI was measured for each of the following?
System: MDA-MB-231 breast
Assay: NCI tumour cell line growth inhibition, 48 h
One number for each entry, in µM.

>>> value_measured("COc1ccc(C(CC(=O)c2ccccc2)C(C(=O)c2ccccc2)C(c2ccc(OC)cc2)C2C(=O)NC(=S)NC2=O)cc1 (centres undefined)")
10.6
>>> value_measured("C=C(C)C(=O)O[C@@H]1C/C(C)=C\\[C@H](OC(C)=O)C[C@](C)(O)/C=C2/OC(=O)C(COC(C)=O)=C21")
2.63
>>> value_measured("COc1nc2c(c(=O)n1C)N=C(c1ccc(Cl)cc1)CC(c1ccccc1)N2 (centres undefined)")
53.7

Input: Answer with the recorded TGI of `Nc1c2c(nc3ccccc13)-c1ccccc1NCCC2` only.
Output: 53.5

----------
System: HL-60(TB) leukemia
Assay: NCI tumour cell line growth inhibition, 48 h
What TGI was measured for each of the following?
Answers are plain numbers, in µM.

Illustrative cases are given below, each with its answer.
>>> value_measured("c1ccc([As]=[As]c2ccccc2)cc1 (configuration not stated)")
4.19
>>> value_measured("COC(=O)[C@@H]1CC(C(CN)c2cn(C(=O)OC(C)(C)C)c3ccccc23)C(=O)N1C(=O)OC(C)(C)C (some centres not stated)")
59.2
>>> value_measured("CC(C)(C)OC(=O)CN1CCN(CC(=O)N2CCN(C(=O)OCc3ccccc3)CC2)CCN(CC(=O)OC(C)(C)C)CCN(CC(=O)N2CCN(C(=O)OCc3ccccc3)CC2)CC1")
0.525
>>> value_measured("Nc1ccc(-c2nc3ccccc3s2)cc1C#Cc1ccccc1")
62.1

Okay, next one:
Input: Report TGI under test system HL-60(TB) leukemia for `O=C(OC/C=C1C=C(OC(=O)c2ccccc2)/C(=N/N(C(=O)c2ccccc2)c2ccccc2)O\1)c1ccccc1` .
Output: 2.29

----------
What TGI was measured for each of the following?
System: LOX IMVI melanoma
Assay: NCI tumour cell line growth inhibition, 48 h

>>> value_measured("COc1ccccc1NCc1cccc2c(=O)c3ccc(Cl)cc3oc12")
"> 100 µM"
>>> value_measured("CCOC(=O)C(CNc1ccc(O)cc1)NC(=O)c1ccccc1 (stereo not given)")
"> 100 µM"
>>> value_measured("COc1ccc(Cn2cc3c(c2-c2ccccc2)CCc2cnoc2-3)cc1N")
"> 100 µM"
>>> value_measured("O=C(N/N=C/c1cc(Cl)cc(Cl)c1[O-])c1ccccc1.O=C(N/N=C/c1cc(Cl)cc(Cl)c1[O-])c1ccccc1.[Co+2]")
"> 100 µM"

Input: Answer with the recorded TGI of `Cc1ccc2oc3c(c(Br)c(Br)n3C)c(=O)c2c1` only.
Output: > 100 µM

----------
What TGI was measured for each of the following?
System: OVCAR-4 ovarian
Assay: NCI tumour cell line growth inhibition, 48 h

Please state TGI for every compound in the list that follows.
1. Cc1cccc2c(N)c3cccc(C(=O)NCC[N+]4(Cc5ccc([N+](=O)[O-])cc5)CCOCC4)c3nc12
2. COC1CCC(=O)N1CN(C(C)=O)c1ccc(C)cc1 (stereo not drawn)
3. O=C(C/C(CCC(=O)N(Cc1ccccc1)Cc1ccccc1)=N/Nc1ccc([N+](=O)[O-])cc1[N+](=O)[O-])c1ccccc1

Output:
1. > 100 µM
2. > 100 µM
3. > 100 µM
